Tested on: NCI-H522 lung
Assay: NCI tumour cell line growth inhibition, 48 h; in the data active means GI50 below about 0.43 µM; inactive means the rest
Outcomes: active, inactive

- COMPOUND: "Nc1c(C(=O)c2cccc(C#CCN3CCCCC3)c2)cnn1-c1ccc(F)cc1"
  TARGET OF ASSAY: "NCI-H522 lung"
  ASSIGNED LABEL: "inactive"
- COMPOUND: "N=c1ccc2nc3ccc(N)cc3sc-2c1"
  TARGET OF ASSAY: "NCI-H522 lung"
  ASSIGNED LABEL: "inactive"
- COMPOUND: "COc1cccc(CNc2ncnc3c2ncn3C2OC(CO)C(O)C2O)c1O (configuration not stated)"
  TARGET OF ASSAY: "NCI-H522 lung"
  ASSIGNED LABEL: "active"
- COMPOUND: "CCN1[C@@H](C(=O)NC23CCC(C(=O)O)(CC2)CC3)[C@H](c2cccc(Cl)c2F)[C@]2(C(=O)Nc3cc(Cl)ccc32)C12CCCCC2"
  TARGET OF ASSAY: "NCI-H522 lung"
  ASSIGNED LABEL: "inactive"
- COMPOUND: "COc1ccc2c(c1)C(=O)/C(=C/c1cccc(OCC(=O)Nc3nc(C)c(C)s3)c1)O2"
  TARGET OF ASSAY: "NCI-H522 lung"
  ASSIGNED LABEL: "active"
- COMPOUND: "CCCCCCNCCCNc1c2cc(OC)ccc2nc2cccc([N+](=O)[O-])c12"
  TARGET OF ASSAY: "NCI-H522 lung"
  ASSIGNED LABEL: "active"
- COMPOUND: "COc1ccc(-c2cnnn2-c2nonc2-n2cccc2)cc1OC"
  TARGET OF ASSAY: "NCI-H522 lung"
  ASSIGNED LABEL: "inactive"
